Exercise: state measured largest response in the series, negative = inhibition for each of the compounds provided.
# SYSTEM NAME: 4'-phosphopantetheinyl transferase ffp (Bacillus subtilis) (UniProt Q9F4F7)
# PROCEDURE DETAILS: qHTS Assay for Inhibitors of Bacillus subtilis Sfp phosphopantetheinyl transferase (PPTase);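 also: the enzyme is Sfp with the accession as filed and its product quenches rhodamine fluorescence; 0% = enzyme reaction without inhibitor and -100% = no enzyme wells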
# TEST SETTINGS: Biochemical Sfp PPTase activity
# Text: Assay Submitter: Michael Burkart, University of California, San Diego Screening Center PI: Austin, C.P. Screening Center: NIH Chemical Genomics Center [NCGC] […] In search of small molecule Sfp-PPTase inhibitors, a fluorescence quenching assay was developed for detection of Bacillus subtilis Sfp-PPTase enzymatic activity in a miniaturized high-throughput format. […]
Hit rate of the full screen: of about 310,000 compounds, about 11,000 (3.5%) were called active. Another 4% or so got no clear call; they are omitted. Only a selection was taken, and actives are over-represented in it overall.
Please state the figure in %; there is no need to write the unit.

Q: Consider the compound shown here: `NCCCNCCCCN(CCCN)/[N+]([O-])=N/O` What is its recorded largest response in the series, negative = inhibition?
Result: -7.71

Q: Consider the compound shown here: `Cc1ccc(NC(=O)[C@H](Cc2ccccc2)NC(=O)C2CCNCC2)cc1` What is its recorded largest response in the series, negative = inhibition?
Result: 1.09

Q: Consider the compound shown here: `O=C(COc1ccc(S(=O)(=O)Nc2cccc(C(F)(F)F)c2)cc1)N1CCOCC1` What is its recorded largest response in the series, negative = inhibition?
Result: 9.23
